src = patent US20240408169A1

# Test system: NCI-H1048 cells
# protocol notes: MTT proliferation assay, NCI-H1048;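 also: Dose-response in 96-well plates over 8 or 10 concentration points, with exposure spanning 3-4 cell doublings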
# Format: cell-based
# condition context: 5 days compound exposure, 1:3 serial dilution starting at 10 μM
*1 amine or outer side, *2 acyl side, *3 side chain or, on linkers, in order; H or OH if unused. Where a SMILES comes first, the peptide text is derived from it. Bridges are numbered along the chain shown (N, C = ends). [ ]: non-standard residue; d: D form. The star is where a group is joined. X144 = CN([C@@H](Cc1cc(Cl)ccc1-c1ccc(N2CC(C)(F)C2)nc1)C(=O)[*:2])[*:1]; X71 = CN([C@@H](Cc1cc(Cl)ccc1-c1ccc(N2CCOCC2)c(F)c1)C(=O)[*:2])[*:1]; X177 = CN([C@@H](Cc1cc(F)ccc1C1=CC2CCC(C1)N2)C(=O)[*:2])[*:1]; NMehhhLys(Me) = CN([C@@H](CCCCCCCN(C)[*:3])C(=O)[*:2])[*:1]; cBuCO(3,3-F2-1-CF3) = O=C(C1(C(F)(F)F)CC(F)(F)C1)*; Pro(trans-4-F) = O=C(O)[C@@H]1C[C@@H](F)CN1; Gly(cPr) = N[C@H](C(=O)O)C1CC1
Classify: y when GI50 is strictly less than 50 nM; n when GI50 is not.

CC(C)C[C@@H]1NC(=O)[C@@H](N(C)C(=O)[C@@H](NC(=O)[C@@H]2C[C@@H](F)CN2C(=O)C2(C(F)(F)F)CC(F)(F)C2)C2CC2)CCCCCCCN(C)C(=O)[C@H](Cc2cc(Cl)ccc2-c2ccc(N3CCOCC3)c(F)c2)N(C)C1=O [Example 348] ({cBuCO(3,3-F2-1-CF3)}-[Pro(trans-4-F)][Gly(cPr)][NMehhhLys(Me)]L[X71]; lactam 3-C): y
CC(C)C[C@@H]1NC(=O)[C@@H](N(C)C(=O)[C@@H](NC(=O)[C@@H]2C[C@@H](F)CN2C(=O)C2(C(F)(F)F)CC(F)(F)C2)C2CC2)CCCCCCCN(C)C(=O)[C@H](Cc2cc(F)ccc2C2=CC3CCC(C2)N3)N(C)C1=O (stereo partly drawn) [Example 165] ({cBuCO(3,3-F2-1-CF3)}-[Pro(trans-4-F)][Gly(cPr)][NMehhhLys(Me)]L[X177]; lactam 3-C): n
CC(C)C[C@@H]1NC(=O)[C@@H](N(C)C(=O)[C@@H](NC(=O)[C@@H]2C[C@@H](F)CN2C(=O)C2(C(F)(F)F)CC(F)(F)C2)C2CC2)CCCCCCCN(C)C(=O)[C@H](Cc2cc(Cl)ccc2-c2ccc(N3CC(C)(F)C3)nc2)N(C)C1=O [Example 402] ({cBuCO(3,3-F2-1-CF3)}-[Pro(trans-4-F)][Gly(cPr)][NMehhhLys(Me)]L[X144]; lactam 3-C): y

Lab note: next compound to report on.
Does CC(C)C[C@@H]1NC(=O)[C@@H](N(C)C(=O)[C@@H](NC(=O)[C@@H]2C[C@@H](F)CN2C(=O)C2(C(F)(F)F)CC3(CCC3)C2)C2CC2)CC=CCCCCN(C)C(=O)[C@H](Cc2cc(Cl)ccc2Cl)N(C)C1=O have GI50 strictly under 50 nM?
n

* * *

# experimental target: CyclinE1/CDK2 (Homo sapiens, UniProt P24864)
# Construct: purchased Eurofins, discovery 14-475
# protocol notes: Fluorescence Polarization (FP) competitive binding assay, Cyclin E1/Cdk2;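 also: readings taken after two-hour equilibration at room temperature in HEPES buffer with NaCl, DTT, NP-40 and BSA, IC50 fitted from eight-concentration serial dilution series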
# condition context: 10 nM Cyclin E1/Cdk2, 2 nM FAM probe; average of 2-3 independent experiments; read-out: Cyclin E FP IC50
*1 amine or outer side, *2 acyl side, *3 side chain or, on linkers, in order; H or OH if unused. Where a SMILES comes first, the peptide text is derived from it. Bridges are numbered along the chain shown (N, C = ends). [ ]: non-standard residue; d: D form. The star is where a group is joined. NMePhe(2-(4-MorPh),5-Cl) = CN[C@@H](Cc1cc(Cl)ccc1-c1ccc(N2CCOCC2)cc1)C(=O)O; X91 = COc1cc(-c2ccc(Cl)cc2C[C@@H](C(=O)[*:2])N(C)[*:1])ccc1N1CCOCC1; NMehhhLys(Me) = CN([C@@H](CCCCCCCN(C)[*:3])C(=O)[*:2])[*:1]; cBuCO(3,3-F2-1-CF3) = O=C(C1(C(F)(F)F)CC(F)(F)C1)*; Pro(trans-4-F) = O=C(O)[C@@H]1C[C@@H](F)CN1; Gly(cPr) = N[C@H](C(=O)O)C1CC1
Reported pIC50 is given for each of the following compounds.
Field pIC50 (float): negative decimal logarithm of the concentration in molar.

Here's what some known entries look like.
COc1cc(-c2ccc(Cl)cc2C[C@H]2C(=O)N(C)CCCCCCC[C@H](N(C)C(=O)[C@@H](NC(=O)[C@@H]3C[C@@H](F)CN3C(=O)C3(C(F)(F)F)CC(F)(F)C3)C3CC3)C(=O)N[C@@H](CC(C)C)C(=O)N2C)ccc1N1CCOCC1 [Example 367] ({cBuCO(3,3-F2-1-CF3)}-[Pro(trans-4-F)][Gly(cPr)][NMehhhLys(Me)]L[X91]; lactam 3-C): 5.96
COC(=O)CC[C@H](NC(=O)[C@@H]1C[C@@H](F)CN1C(=O)C1(C(F)(F)F)CC(F)(F)C1)C(=O)N(C)[C@H]1CCCCCCCN(C)C(=O)[C@H](Cc2cc(Cl)ccc2-c2ccc(N3CCOCC3)cc2)N(C)C(=O)[C@H](CC(C)C)NC1=O [Example 415] ({cBuCO(3,3-F2-1-CF3)}-[Pro(trans-4-F)]E(OMe)[NMehhhLys(Me)]L[NMePhe(2-(4-MorPh),5-Cl)]; lactam 3-C): 6.52

Alright, here's another compound for you.
Any idea what pIC50 was measured for CC(C)C[C@@H]1NC(=O)[C@@H](N(C)C(=O)[C@@H](NC(=O)[C@@H]2C[C@@H](F)CN2C(=O)C2(C(F)(F)F)CCC2)C2CC2)CC=CCCCCNC(=O)[C@H](Cc2cc(Cl)cnc2OC2CC2)N(C)C1=O (single isomer, unassigned) [Example 107-P1] ?
6.27
